Just for reference, patent US11352350B2 is where these values come from.

Target: IRAK4 (Homo sapiens (Human), UniProt Q9NWZ3)
Sequence (Q9NWZ3 whole entry): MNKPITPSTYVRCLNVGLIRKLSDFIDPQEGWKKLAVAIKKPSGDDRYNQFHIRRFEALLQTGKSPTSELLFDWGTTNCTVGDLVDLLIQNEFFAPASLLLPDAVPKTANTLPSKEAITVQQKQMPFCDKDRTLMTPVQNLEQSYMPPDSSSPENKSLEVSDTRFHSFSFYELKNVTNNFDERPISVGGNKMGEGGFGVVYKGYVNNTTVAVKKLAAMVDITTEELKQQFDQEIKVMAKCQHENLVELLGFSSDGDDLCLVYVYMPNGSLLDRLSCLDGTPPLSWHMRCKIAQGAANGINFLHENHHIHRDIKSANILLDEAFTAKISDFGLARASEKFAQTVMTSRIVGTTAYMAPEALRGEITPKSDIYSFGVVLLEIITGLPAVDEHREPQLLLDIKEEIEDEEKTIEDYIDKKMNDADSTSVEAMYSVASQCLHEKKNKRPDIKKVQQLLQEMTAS
Assay: IRAK4 MSD degradation in OCI-LY10
Type: cell-based
Conditions: OCI-LY10, 4 hrs, MSD; read-out: IRAK4 MSD degradation in OCI-LY10 at 4 hrs: Average external-Abs DC50

[
  {
    "compound": "CC(C)[C@@H](CS(=O)(=O)C(C)C)N1C(=O)[C@@](C)(CC(=O)N2CCC(CCN(C)C[C@H]3CC[C@H](n4cc(NC(=O)c5coc(-c6ccnc(NCC7CC7)c6)n5)c(C(F)F)n4)CC3)CC2)C[C@H](c2cccc(Cl)c2)[C@H]1c1ccc(Cl)cc1 [I-147]",
    "DC50": "> 1000 nM"
  },
  {
    "compound": "Cn1c(=O)n(C2CCC(=O)NC2=O)c2cccc(CCCN3CCO[C@H](CNC[C@H]4CC[C@H](n5cc(NC(=O)c6coc(-c7ccnc(NCC8CC8)c7)n6)c(C(F)F)n5)CC4)C3)c21 (stereo partly shown) [I-37]",
    "DC50": "10 to 100 nM"
  },
  {
    "compound": "C[C@@H]1CN(c2ccn3ncc(C(=O)Nc4cn([C@H]5CC[C@H](CN6CCC(OCCCc7cccc8c7n(C)c(=O)n8C7CCC(=O)NC7=O)CC6)CC5)nc4C(F)F)c3n2)C[C@H](C)O1 (stereo partly shown) [I-275]",
    "DC50": "10 to 100 nM"
  },
  {
    "compound": "O=C1CCC(N2C(=O)c3cccc(N4CCC(CCN5CCC(n6cc(NC(=O)c7cnn8ccc(N9CCOCC9)nc78)c(C(F)F)n6)CC5)CC4)c3C2=O)C(=O)N1 (stereo not shown) [I-227]",
    "DC50": "100 to 1000 nM"
  },
  {
    "compound": "O=C1CCC(N2C(=O)c3cccc(NCCCOC4CCN(C[C@H]5CC[C@H](n6ncc(NC(=O)c7cnn8ccc(N9C[C@H]%10CC9CO%10)nc78)c6C(=O)O)CC5)CC4)c3C2=O)C(=O)N1 (stereo partly shown) [I-348]",
    "DC50": "> 1000 nM"
  },
  {
    "compound": "CN(CC1CCN(c2ccc3c(c2)n(C)c(=O)n3C2CCC(=O)NC2=O)CC1)C[C@H]1CC[C@H](n2cc(NC(=O)c3coc(-c4ccnc(NCC5CC5)c4)n3)c(C(F)F)n2)CC1 (stereo partly shown) [I-236]",
    "DC50": "< 10 nM"
  },
  {
    "compound": "CC[C@@H]1[C@H](F)C(=O)N[C@@H]1COc1ncc(C#C[C@H]2CC[C@H](CN(C)CCCc3ccc(CNc4cccc5c4C(=O)N(C4CCC(=O)NC4=O)C5=O)cc3)CC2)c2cc(C(N)=O)c(OC)cc12 (stereo partly shown) [I-338]",
    "DC50": "100 to 1000 nM"
  },
  {
    "compound": "CN[C@@H](C)C(=O)N[C@H](C(=O)N1Cc2cc(OCCOCCOCCOCCNC[C@H]3CC[C@H](n4cc(NC(=O)c5coc(-c6ccnc(NCC7CC7)c6)n5)c(C(F)F)n4)CC3)ccc2C[C@H]1C(=O)N[C@@H]1CCCc2ccccc21)C(C)(C)C [I-390]",
    "DC50": "> 1000 nM"
  },
  {
    "compound": "Cn1c(=O)n(C2CCC(=O)NC2=O)c2cccc(CC(=O)N3CC4(CCN(C[C@H]5CC[C@H](n6cc(NC(=O)c7cnn8ccc(N9C[C@H]%10C[C@@H]9CO%10)nc78)c(C(F)F)n6)CC5)CC4)C3)c21 (stereo partly shown) [I-421]",
    "DC50": "< 10 nM"
  },
  {
    "compound": "Cn1c(=N)n(C2CCC(=O)NC2=O)c2ccc(CCCOCCCN3CCC(n4cc(NC(=O)c5cnn6ccc(N7CCOCC7)nc56)c(C(F)F)n4)CC3)cc21 (stereo not shown) [I-179]",
    "DC50": "100 to 1000 nM"
  }
]
